Test: BSK_hDFCGF_Proliferation: Cell Proliferation Assessment in the BioMAP Diversity Plus: hDFCGF Assay (AID 2283059);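 further: curves fitted for both rise and fall of signal versus DMSO baseline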
Settings: primary human foreskin fibroblasts
Experimental: BSK_hDFCGF is a cell-based, multiplexed-readout assay that uses foreskin fibroblast, a human skin primary cell, with measurements taken at 24 hours after chemical dosing in a 96-well plate.BSK_hDFCGF_Proliferation is an assay component measured in the BSK_hDFCGF assay. It measures […] related to cell proliferation using Sulforhodamine staining technology.Data from the assay component BSK_hDFCGF_Proliferation was analyzed into 1 assay endpoint. […]
Calls of active or inactive are those of the source. How the source made its calls: active means hit-call score of the fitted dose curve at least 0.9, where 1 is the maximum; inactive means score below 0.9.
Outcomes: 1 = active, -1 = inactive

compound: CCN(CC)N=O
classification: -1

compound: Clc1ccc(C(c2ccc(Cl)cc2)C(Cl)(Cl)Cl)cc1
classification: 1

compound: COc1cc(C=O)cc2c1[C@H](COC(N)=O)[C@]1(OC(C)=O)ON2C[C@H]2[C@@H]1N2C(C)=O
classification: 1

compound: CCOc1cccc(C2(N3CCN(c4ccccc4)CC3)CCC(C)CC2)c1 (stereo unspecified)
classification: -1

compound: Cc1ccc(N=C=O)cc1N=C=O
classification: -1

compound: O=Cc1ccco1
classification: -1
